Test: chemical genetic growth profiling, strain panel (AID 1159580);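 note: tested at 20 µM; growth read once vehicle control cultures reached saturation at 30 °C; 1 = growth at the plate median or of vehicle wells; lower values mean less growth of the strain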
Conditions: S. cerevisiae deletion strains, growth OD, locus YOR070C, strain gyp1, stronger effect = lower value
Screen size: about 5,500 compounds; about 2,000 (36%) were called active. Not shown: some 18% with an inconclusive outcome. Some of the results follow.
Below, each of the compounds is paired with its reported normalized growth value.
Lab note: write the figure by itself, no unit.

compound=NCCCC(O)(P(=O)(O)O)P(=O)(O)O numeric_value=0.972
compound=C=CCSC[C@@H](N)C(=O)O numeric_value=0.992
compound="COC(=O)C[C@H]1C(C)(C)[C@@H](O)[C@@H]2CC3=C4CC(O)O[C@@H](c5ccoc5)[C@]4(C)CCC3[C@@]1(C)C2=O (stereo partly specified)" numeric_value=1.02

(Q) Please give the measured normalized growth for this compound: `CC(C)C[C@@H](NC(=O)OCC1c2ccccc2-c2ccccc21)C(=O)O`
(A) 0.991

(Q) Same for `COc1cc(C(=O)N2CCOCC2)cc(OC)c1OC`
(A) 0.982

(Q) Further, for `COc1c(O)cc2c(c1O)[C@H]1O[C@H](CO)[C@@H](O)[C@H](O)[C@@H]1OC2=O` ?
(A) 1.01
